protocol.text: Half-life period after oral dose of 3.87 mg/kg
Assay type: ADME, organism-based
Parameters: dose 3.87 mg/kg, route oral
cond: in vivo
readout.type: half-life (min)
Lab book: enter the figure in min, no units written.

Which half-life reading was recorded for the compound CCc1nc2c(C)cc(C)nc2n1Cc1ccc(-c2ccccc2-c2nnn[nH]2)cc1 [L-158809] ?
234

====

protocol.text: Tmax value after oral dose of 1 mg/kg
Assay type: ADME, organism-based
Set-up: dose 1 mg/kg, route oral
cond: in vivo
readout.type: Tmax (min)
Lab book: enter the figure in min, no units written.

Which Tmax reading was recorded for the compound "CCCN(Cc1ccc(-c2ccccc2-c2nnn[nH]2)cc1)c1ncccc1C(=O)O" ?
54

From: ChEMBL document CHEMBL1126796
